Reported IC50 values are given for each entry in this list.
Molecular target: CDK7 CyclinH (Homo sapiens)
Sequence (P50613 whole entry): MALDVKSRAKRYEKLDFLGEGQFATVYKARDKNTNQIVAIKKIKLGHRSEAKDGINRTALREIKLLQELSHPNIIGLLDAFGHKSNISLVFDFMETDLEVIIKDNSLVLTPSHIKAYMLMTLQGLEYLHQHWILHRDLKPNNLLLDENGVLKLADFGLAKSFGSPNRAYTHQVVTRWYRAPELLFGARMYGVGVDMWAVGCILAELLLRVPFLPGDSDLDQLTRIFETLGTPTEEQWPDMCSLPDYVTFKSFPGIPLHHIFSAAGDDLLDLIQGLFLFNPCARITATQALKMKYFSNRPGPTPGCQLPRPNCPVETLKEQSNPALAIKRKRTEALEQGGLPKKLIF
Sequence (P51946 whole entry partner): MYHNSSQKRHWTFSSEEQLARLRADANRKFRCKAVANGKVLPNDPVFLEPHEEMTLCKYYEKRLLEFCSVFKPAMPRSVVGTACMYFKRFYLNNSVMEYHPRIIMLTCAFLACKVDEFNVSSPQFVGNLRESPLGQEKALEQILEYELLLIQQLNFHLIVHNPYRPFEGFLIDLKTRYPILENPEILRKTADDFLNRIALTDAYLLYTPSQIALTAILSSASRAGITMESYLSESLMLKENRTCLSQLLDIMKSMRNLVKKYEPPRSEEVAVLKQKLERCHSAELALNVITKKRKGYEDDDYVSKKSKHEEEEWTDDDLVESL
Sequence (P51948 whole entry partner): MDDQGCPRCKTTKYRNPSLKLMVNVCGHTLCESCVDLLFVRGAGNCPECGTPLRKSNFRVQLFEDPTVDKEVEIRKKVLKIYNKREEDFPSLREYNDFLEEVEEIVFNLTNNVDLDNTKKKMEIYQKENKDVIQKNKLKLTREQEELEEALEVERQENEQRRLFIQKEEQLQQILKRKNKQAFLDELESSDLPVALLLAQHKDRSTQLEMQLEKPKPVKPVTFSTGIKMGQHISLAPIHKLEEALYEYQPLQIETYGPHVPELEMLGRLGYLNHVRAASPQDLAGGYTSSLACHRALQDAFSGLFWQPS
Test: Inhibition assay, CDK7 CyclinH
Type: biochemical
Settings: Table 3a
endpoint name: IC50

molecule: Cc1c(C(=O)N(C)C)c(=O)n(C23CC(C2)C3)c2nc(NC3CC4CCC3C4)ncc12 (stereo not drawn) [Compound B157]
assay value: > 10 µM
--
molecule: CS(=O)(=O)N1CCC(Nc2ncc3cc(C#N)c(=O)n(C45CC(C4)C5)c3n2)CC1
assay value: > 10 µM
--
molecule: CC(=O)c1c(C)c2cnc(Nc3ccc(OCCN(C)C)c(C)c3)nc2n(C2CCCC2)c1=O
assay value: > 100 µM

----------
Target: CDK2-CYCLINA (Homo sapiens, UniProt P24941)
Assay: Microfluidic LabChip inhibition assay, CDK2-CYCLINA
Type: biochemical
Conditions: Table 3b; ATP 50 μM

compound: N#Cc1cc2cnc(Nc3ccc(N4CCN(CCO)CC4)c(F)c3)nc2n(C2CCCC2)c1=O
target under test: CDK2-CYCLINA (Homo sapiens, UniProt P24941)
operator symbol: =
IC50 / nM: 308
//
compound: CC(=O)c1c(C)c2cnc(Nc3ccc(N4CCN(C)CC4)cn3)nc2n(C23CC(C2)C3)c1=O
target under test: CDK2-CYCLINA (Homo sapiens, UniProt P24941)
operator symbol: >
IC50 / nM: 10000
//
compound: CN(C)C(=O)c1cc2cnc(NC3CCN(S(C)(=O)=O)CC3)nc2n(C2CCCC2)c1=O
target under test: CDK2-CYCLINA (Homo sapiens, UniProt P24941)
operator symbol: =
IC50 / nM: 285
//
compound: Cc1c(C(=O)N(C)C)c(=O)n(C23CC(C2)C3)c2nc(NC3CC4CCC3C4)ncc12 (stereo not shown) [Compound B158]
target under test: CDK2-CYCLINA (Homo sapiens, UniProt P24941)
operator symbol: >
IC50 / nM: 10000

----------
Reported pIC50 values are given for each entry in this list.
Target: CDK9-CYCLINT1 (Homo sapiens, UniProt P50750)
Sequence (P50750 whole entry): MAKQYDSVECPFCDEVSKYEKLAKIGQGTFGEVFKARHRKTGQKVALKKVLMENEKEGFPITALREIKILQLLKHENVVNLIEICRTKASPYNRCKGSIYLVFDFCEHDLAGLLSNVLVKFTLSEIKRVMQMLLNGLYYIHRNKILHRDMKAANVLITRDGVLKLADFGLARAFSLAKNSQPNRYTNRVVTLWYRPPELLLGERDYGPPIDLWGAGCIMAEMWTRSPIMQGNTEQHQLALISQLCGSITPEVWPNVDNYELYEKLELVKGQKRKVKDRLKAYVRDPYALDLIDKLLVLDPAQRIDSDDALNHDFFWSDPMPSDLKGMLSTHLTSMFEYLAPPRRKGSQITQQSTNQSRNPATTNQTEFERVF
Sequence (O60563 whole entry partner): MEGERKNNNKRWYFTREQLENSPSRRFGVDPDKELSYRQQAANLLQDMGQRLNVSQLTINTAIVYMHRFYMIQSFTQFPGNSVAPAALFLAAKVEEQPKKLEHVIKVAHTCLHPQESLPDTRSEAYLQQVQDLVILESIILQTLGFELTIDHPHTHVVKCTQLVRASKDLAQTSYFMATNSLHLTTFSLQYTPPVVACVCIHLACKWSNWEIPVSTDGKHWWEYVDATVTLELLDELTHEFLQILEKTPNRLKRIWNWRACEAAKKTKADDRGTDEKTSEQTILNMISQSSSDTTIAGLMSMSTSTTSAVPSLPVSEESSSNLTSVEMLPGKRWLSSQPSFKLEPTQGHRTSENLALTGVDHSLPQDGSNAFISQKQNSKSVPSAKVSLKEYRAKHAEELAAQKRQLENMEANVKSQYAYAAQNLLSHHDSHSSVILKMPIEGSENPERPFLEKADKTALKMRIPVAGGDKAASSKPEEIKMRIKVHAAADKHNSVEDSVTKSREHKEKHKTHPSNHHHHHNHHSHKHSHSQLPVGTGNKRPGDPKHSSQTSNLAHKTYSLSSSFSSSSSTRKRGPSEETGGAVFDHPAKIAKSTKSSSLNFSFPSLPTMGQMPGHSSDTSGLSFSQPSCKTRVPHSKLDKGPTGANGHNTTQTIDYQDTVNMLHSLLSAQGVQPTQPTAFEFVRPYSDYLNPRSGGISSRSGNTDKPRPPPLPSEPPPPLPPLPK
Assay: Microfluidic LabChip inhibition assay, CDK9-CYCLINT1
Format: biochemical
Conditions: Table 3b; ATP 10 μM
pIC50: −log10 of the molar value.

compound: CS(=O)(=O)N1CCC(Nc2ncc3cc(C#N)c(=O)n(C4CCCC4)c3n2)CC1
pIC50: 6.98

compound: Cc1c(C(=O)N(C)C)c(=O)n(C23CC(C2)C3)c2nc(NC3CCN(S(C)(=O)=O)CC3)ncc12
pIC50: < 5.00

compound: CC(=O)c1c(C)c2cnc(Nc3ccc(OCCN(C)C)cc3)nc2n(C2CCCC2)c1=O [Compound B59]
pIC50: > 8.49

compound: CS(=O)(=O)N1CCC(Nc2ncc3cc(C#N)c(=O)n(C45CC(C4)C5)c3n2)CC1
pIC50: < 5.00

----------
Reported log10(IC50) values are given for each entry in this list.
Target: CDK4-CYCLIND1 (Homo sapiens, UniProt P11802)
Sequence (P11802 whole entry): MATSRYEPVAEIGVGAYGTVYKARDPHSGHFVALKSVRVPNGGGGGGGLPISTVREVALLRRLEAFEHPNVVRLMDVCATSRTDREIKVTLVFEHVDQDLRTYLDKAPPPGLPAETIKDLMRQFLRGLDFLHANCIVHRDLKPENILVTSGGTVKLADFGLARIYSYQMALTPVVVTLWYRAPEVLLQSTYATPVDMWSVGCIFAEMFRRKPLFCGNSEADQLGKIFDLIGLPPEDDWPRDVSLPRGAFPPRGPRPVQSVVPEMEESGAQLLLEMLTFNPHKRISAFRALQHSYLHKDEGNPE
Sequence (P24385 whole entry partner): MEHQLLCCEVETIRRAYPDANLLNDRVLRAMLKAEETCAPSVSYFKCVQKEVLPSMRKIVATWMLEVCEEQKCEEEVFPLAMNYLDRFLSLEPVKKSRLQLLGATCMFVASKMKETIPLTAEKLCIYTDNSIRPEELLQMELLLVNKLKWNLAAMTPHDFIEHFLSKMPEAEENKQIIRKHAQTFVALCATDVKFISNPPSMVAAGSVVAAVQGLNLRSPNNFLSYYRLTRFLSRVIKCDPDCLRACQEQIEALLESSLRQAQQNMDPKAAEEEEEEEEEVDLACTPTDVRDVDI
Test: Microfluidic LabChip inhibition assay, CDK4-CYCLIND1
Assay type: biochemical
Details: Table 2; ATP 200 μM, 25° C.; read-out: CDK4 IC50
endpoint name: log10(IC50) (log10 of the value in nM)

smiles structure: CN1CCN(c2ccc(Nc3ncc4cc(C#N)c(=O)n(C56CC(C5)C6)c4n3)cc2)CC1
log10(IC50): 1.49

smiles structure: N#Cc1cc2cnc(Nc3ccc(N4CC5(CNC5)C4)cn3)nc2n(C2CCCC2)c1=O
log10(IC50): 1.32

smiles structure: CC(C)N1CCN(c2ccc(Nc3ncc4cc(C#N)c(=O)n(C56CC(C5)C6)c4n3)nc2)CC1
log10(IC50): 2.33

smiles structure: N#Cc1cc2cnc(Nc3ccc(OCCN4CCCCC4)cn3)nc2n(C2CCCC2)c1=O
log10(IC50): 1.59

smiles structure: CN1CCN(c2ccc(Nc3ncc4cc(C#N)c(=O)n(C5CCCC5)c4n3)cc2F)CC1
log10(IC50): 0.25

----------
Molecular target: CDK4-CYCLIND1 (Homo sapiens, UniProt P11802)
Assay: Microfluidic LabChip inhibition assay, CDK4-CYCLIND1
Type: biochemical
Conditions: Table 3a; ATP 200 μM; second values in parentheses on the line below, not explained; read-out: CDK4 CyclinD1 IC50
endpoint name: IC50

compound: CC(=O)c1c(C)c2cnc(Nc3ccc(N(C)CCN(C)C)cc3)nc2n(C2CCCC2)c1=O [Compound B155]
endpoint name: IC50
assay value: < 3.2 nM
--
compound: CC(=O)c1c(C)c2cnc(Nc3ccc(OCCN(C)C)cc3)nc2n(C2CCCC2)c1=O
endpoint name: IC50
assay value: < 3.2 nM
--
compound: CC(=O)c1c(C)c2cnc(Nc3ccc(N4CC(C)NC(C)C4)cc3)nc2n(C2CCCC2)c1=O (centres unmarked)
endpoint name: IC50
assay value: < 3.2 nM
--
compound: CS(=O)(=O)N1CCC(Nc2ncc3cc(C#N)c(=O)n(C45CC(C4)C5)c3n2)CC1
endpoint name: IC50
assay value: > 10000 nM
--
compound: N#Cc1cc2cnc(Nc3ccc(N4CCN(CCO)CC4)c(F)c3)nc2n(C2CCCC2)c1=O
endpoint name: IC50
assay value: < 3.2 nM

The reported measurements were obtained from patent US20220220103A1.
